- System: OVCAR-3 ovarian
- TEST: NCI tumour cell line growth inhibition, 48 h
Measured log10 of TGI accompanies every entry in the list below.
RECORDED_METRIC: log10 of TGI (log10 of the value in µM)

Cc1ccc(S(=O)(=O)SCc2ccccc2)cc1: 1.66
Oc1ccccc1C=Nc1ccccc1N=Cc1ccccc1O.[Cu+2]: 1.16
CCN1C(=O)N(CC)C2C1NN=c1s/c(=C\c3cccc([N+](=O)[O-])c3)c(=O)n12 (stereo not given): -0.40
C#CC(=O)OCC#CCOC(=O)C#C: 1.54
Cn1c(=O)c2nc(NCCO)cnc2n(C)c1=O: 1.76
Clc1ccc(N2CCC(N3CCCC3)CC2)cc1-c1nc2ccccc2[nH]1: 1.61

// provenance: PubChem BioAssay (NCI)
